- procedure.details: Pharmacokinetics in normal dogs
- Format: in vivo, dog (Canis familiaris)
- conditions: male, Beagle, dog, plasma, po, 10 mg/kg, read-out: MRT
measured.parameter: MRT
Provide a numeric answer, followed by its unit.

Record request: MRT value, item CC(C)c1ccc2oc3nc(N)c(C(=O)O)cc3c(=O)c2c1
3.3 h

###

- procedure.details: Pharmacokinetics and bioavailability in normal mice
- Type: in vivo, mouse
- conditions: female, C57BL/6, iv; mouse plasma; i.v.; 100 mg/kg
Counter-ions that a name gives are not always drawn.
measured.parameter: half-life (min)
Entry rule: numbers only, all in min.

Which half-life value belongs to CC(C)c1ccc2oc3nc(N)c(C(=O)O)cc3c(=O)c2c1 [Amlexanox (salt), sodium salt] ?
48

###

- procedure.details: Bioavailability and pharmacokinetics in normal rats
- Type: in vivo, rat
- conditions: female, CD, rat, plasma, iv, 25 mg/kg, rat plasma; I.V.
Structures can show the parent of a compound that is named as a salt.
measured.parameter: Cmax (µg/mL)
Unit µg/mL implied. Number only.

Request the reported Cmax associated with CC(C)c1ccc2oc3nc(N)c(C(=O)O)cc3c(=O)c2c1 [Amlexanox (salt), sodium salt]
33.4

###

- procedure.details: Pharmacokinetics and bioavailability in normal mice
- Type: in vivo, mouse
- conditions: female, C57BL/6, iv; mouse plasma; i.v.; 100 mg/kg; read-out: Vss
Where a name gives a salt, the structure may show the parent alone.
measured.parameter: Vd
In your response, put the unit directly after the numeric value.

Fill in: Vd of CC(C)c1ccc2oc3nc(N)c(C(=O)O)cc3c(=O)c2c1 [Amlexanox (salt), sodium salt] is ___
0.02 L/kg

###

- procedure.details: Pharmacokinetics and bioavailability in normal mice
- Format: in vivo, mouse
- conditions: female, C57BL/6; mouse plasma; oral; 10 mg/kg
Where a name gives a salt, the structure may show the parent alone.
measured.parameter: MRT (h)
A number alone suffices; assume h.

Quick one: MRT of CC(C)c1ccc2oc3nc(N)c(C(=O)O)cc3c(=O)c2c1 [Amlexanox (salt), sodium salt] ?
1.6

###

- procedure.details: Bioavailability and pharmacokinetics in normal rats
- Assay type: in vivo, rat
- conditions: female, CD, rat, plasma, po, 25 mg/kg, rat; salt; 25 mg/kg; read-out: Bioavailability for oral administration
Where a name gives a salt, the structure may show the parent alone.
measured.parameter: bioavailability (%)
Respond numerically; units are % and should not be typed.

# get_value(readout='bioavailability', item= CC(C)c1ccc2oc3nc(N)c(C(=O)O)cc3c(=O)c2c1 [Amlexanox (salt), sodium salt] )
4.7

###

- procedure.details: Pharmacokinetics and bioavailability in normal mice
- Type: in vivo, mouse
- conditions: female, C57BL/6, iv; mouse plasma; i.v.; 10 mg/kg
Structures can show the parent of a compound that is named as a salt.
measured.parameter: half-life (min)
Lab book: enter the figure in min, no units written.

Give its half-life value. Item: CC(C)c1ccc2oc3nc(N)c(C(=O)O)cc3c(=O)c2c1 [Amlexanox (salt), sodium salt]
24

###

- procedure.details: Bioavailability and pharmacokinetics in normal rats
- Assay type: in vivo, rat
- conditions: female, CD, rat, plasma, po, 25 mg/kg, rat plasma, acid suspended in 1% methyl cellulose
measured.parameter: Cmax (ng/mL)
Give the quantity in ng/mL, number only.

Value lookup for Cmax; key = CC(C)c1ccc2oc3nc(N)c(C(=O)O)cc3c(=O)c2c1
260
